Assay: Inhibition of NS5A in HCV genotype 2b assessed as decrease in viral replication
pEC50: −log10 of the molar value.
# thresholds on pEC50 define classes: low: < 8; mid: ≥ 8 and < 9; high: ≥ 9

Lookup: Category of "CCN(CC)[C@@H](C(=O)N1C[C@H](F)C[C@H]1c1ncc(-c2ccc3c(ccc4oc5cc(-c6cnc([C@@H]7C[C@@H](F)CN7C(=O)[C@@H](c7ccccc7)N(CC)CC)[nH]6)ccc5c(=O)c43)c2)[nH]1)c1ccccc1" :
Found: low

Lookup: Cool, now "COC(=O)N[C@H](C(=O)N1C[C@H](F)C[C@H]1c1ncc(-c2ccc3c(ccc4oc5cc(-c6cnc([C@@H]7C[C@@H](F)CN7C(=O)[C@@H](NC(=O)OC)C(C)C)[nH]6)ccc5c(=O)c43)c2)[nH]1)C(C)C"
Found: low

Lookup: Cool, now "COC(=O)N[C@H](C(=O)N1CCC[C@H]1c1ncc(-c2ccc3c(c2)Oc2ccc4cc(-c5cnc([C@@H]6CCCN6C[C@@H](NC(=O)OC)C6CCOCC6)[nH]5)ccc4c2C3(C)C)[nH]1)C1CCOCC1"
Found: high

Lookup: Cool, now "COC(=O)N[C@H](C(=O)N1CCC[C@H]1c1ncc(-c2ccc3c(c2)Oc2ccc4cc(-c5cnc([C@@H]6CCCN6C[C@@H](NC(=O)OC)C6CCOCC6)[nH]5)ccc4c2[C@@H]3C)[nH]1)C1CCOCC1"
Found: high

Lookup: Cool, now "COC(=O)N[C@H](C(=O)N1C[C@H](F)C[C@H]1c1ncc(-c2ccc3c(ccc4oc5cc(-c6cnc([C@@H]7C[C@@H](F)CN7C(=O)[C@@H](NC(=O)OC)C7CCOCC7)[nH]6)ccc5c(=O)c43)c2)[nH]1)C1CCOCC1"
Found: mid

Lookup: Cool, now "CCC1(CC)c2ccc(-c3cnc([C@@H]4CCCN4C(=O)[C@@H](NC(=O)OC)C(C)C)[nH]3)cc2Oc2cc3ccc(-c4cnc([C@@H]5CCCN5C(=O)[C@@H](NC(=O)OC)C(C)C)[nH]4)cc3cc21"
Found: mid

Lookup: Cool, now "COC(=O)N[C@H](C(=O)N1CCC[C@H]1c1ncc(-c2ccc3c(F)c4oc5ccc(-c6cnc([C@@H]7CCCN7C(=O)[C@@H](NC(=O)OC)C(C)C)[nH]6)cc5c(=O)c4cc3c2)[nH]1)C(C)C"
Found: low

Lookup: Cool, now "COC(=O)N[C@H](C(=O)N1CCC[C@H]1c1ncc(-c2ccc3c(c2)Oc2ccc4cc(-c5cnc([C@@H]6CCCN6C[C@@H](NC(=O)OC)C6CCOCC6)[nH]5)ccc4c2[C@H]3C)[nH]1)C1CCOCC1"
Found: high

Lookup: Cool, now "CCC1(CC)c2ccc(-c3cnc([C@@H]4CCCN4C(=O)[C@@H](NC(=O)OC)C(C)C)[nH]3)cc2Oc2ccc3cc(-c4cnc([C@@H]5CCCN5C(=O)[C@@H](NC(=O)OC)C(C)C)[nH]4)ccc3c21"
Found: mid

Lookup: Cool, now "COC(=O)N[C@H](C(=O)N1CCC[C@H]1c1ncc(-c2ccc3c(c2)Oc2ccc4cc(-c5cnc([C@@H]6CCCN6C(=O)[C@@H](NC(=O)OC)C(C)C)[nH]5)ccc4c2[C@H]3C)[nH]1)C(C)C"
Found: mid

Lookup: Cool, now "COC(=O)N[C@H](C(=O)N1CCC[C@H]1c1ncc(-c2ccc3c(c2)Oc2ccc4cc(-c5cnc([C@@H]6CCCN6C(=O)[C@@H](NC(=O)OC)C(C)C)[nH]5)ccc4c2[C@@H]3C)[nH]1)C(C)C"
Found: low

====

Experiment: Inhibition of NS5A in HCV genotype 2b assessed as decrease in viral replication
OBSERVED_PROPERTY: EC50

Lookup: Recorded EC50 for "COC(=O)N[C@H](C(=O)N1CCC[C@H]1c1ncc(-c2ccc3c(ccc4oc5ccc(-c6cnc([C@@H]7CCCN7C(=O)[C@@H](NC(=O)OC)C(C)C)[nH]6)cc5c(=O)c43)c2)[nH]1)C(C)C" , please?
Found: > 100 nM

Lookup: Cool, now "COC(=O)N[C@H](C(=O)N1CCC[C@H]1c1ncc(-c2ccc3c(ccc4oc5cc(-c6cnc([C@@H]7CCCN7C(=O)[C@@H](NC(=O)OC)C7CCOCC7)[nH]6)ccc5c(=O)c43)c2)[nH]1)C1CCOCC1"
Found: 0.48 nM

Lookup: Cool, now "COC(=O)N[C@H](C(=O)N1CCC[C@H]1c1ncc(-c2ccc3c(c2)Oc2ccc4cc(-c5cnc([C@@H]6CCCN6C(=O)[C@@H](NC(=O)OC)C(C)C)[nH]5)ccc4c2C3(C)C)[nH]1)C(C)C"
Found: 11 nM

Lookup: Cool, now "CC[C@@H]1c2ccc(-c3cnc([C@@H]4CCCN4C(=O)[C@@H](NC(=O)OC)C4CCOCC4)[nH]3)cc2Oc2ccc3cc(-c4cnc([C@@H]5CCCN5C[C@@H](NC(=O)OC)C5CCOCC5)[nH]4)ccc3c21"
Found: 0.3 nM

Lookup: Cool, now "CC[C@H]1c2ccc(-c3cnc([C@@H]4CCCN4C(=O)[C@@H](NC(=O)OC)C(C)C)[nH]3)cc2Oc2ccc3cc(-c4cnc([C@@H]5CCCN5C(=O)[C@@H](NC(=O)OC)C(C)C)[nH]4)ccc3c21"
Found: 0.78 nM

====

Assay: Inhibition of NS5A in HCV genotype 4a assessed as decrease in viral replication
Please provide measured pEC50 for the entries that follow.
The quantity pEC50 is defined as the negative base-10 logarithm of the molar concentration.

Lookup: Recorded pEC50 for "CC[C@@H]1c2ccc(-c3cnc([C@@H]4CCCN4C(=O)[C@@H](NC(=O)OC)C4CCOCC4)[nH]3)cc2Oc2ccc3cc(-c4cnc([C@@H]5CCCN5C[C@@H](NC(=O)OC)C5CCOCC5)[nH]4)ccc3c21" , please?
Found: 11.00

Lookup: Cool, now "COC(=O)N[C@H](C(=O)N1CCC[C@H]1c1ncc(-c2ccc3c(c2)Oc2ccc4cc(-c5cnc([C@@H]6CCCN6C[C@@H](NC(=O)OC)C6CCOCC6)[nH]5)ccc4c2[C@H]3C)[nH]1)C1CCOCC1"
Found: 11.05

Lookup: Cool, now "COC(=O)N[C@H](C(=O)N1CCC[C@H]1c1ncc(-c2ccc3c(c2)Oc2ccc4cc(-c5cnc([C@@H]6CCCN6C[C@@H](NC(=O)OC)C6CCOCC6)[nH]5)ccc4c2[C@@H]3C)[nH]1)C1CCOCC1"
Found: 11.40

Lookup: Cool, now "COC(=O)N[C@H](C(=O)N1CCC[C@H]1c1ncc(-c2ccc3c(c2)Oc2ccc4cc(-c5cnc([C@@H]6CCCN6C[C@@H](NC(=O)OC)C6CCOCC6)[nH]5)ccc4c2C3(C)C)[nH]1)C1CCOCC1"
Found: 11.22

====

Assay: Inhibition of NS5A in HCV genotype 1a assessed as decrease in viral replication
pEC50: −log10 of the molar value.
Would you please tag the item True when its pEC50 is 10 or above, and False when it is below?

Lookup: Identify whether the reported pEC50 of the following compound is 10 or greater: "CCC1(CC)c2ccc(-c3cnc([C@@H]4CCCN4C(=O)[C@@H](NC(=O)OC)C(C)C)[nH]3)cc2Oc2ccc3cc(-c4cnc([C@@H]5CCCN5C(=O)[C@@H](NC(=O)OC)C(C)C)[nH]4)ccc3c21"
Found: True

Lookup: Cool, now "CCN(CC)[C@@H](C(=O)N1C[C@H](F)C[C@H]1c1ncc(-c2ccc3c(ccc4oc5cc(-c6cnc([C@@H]7C[C@@H](F)CN7C(=O)[C@@H](c7ccccc7)N(CC)CC)[nH]6)ccc5c(=O)c43)c2)[nH]1)c1ccccc1"
Found: False

Lookup: Cool, now "CCC1(CC)c2ccc(-c3cnc([C@@H]4CCCN4C(=O)[C@@H](NC(=O)OC)C(C)C)[nH]3)cc2Oc2cc3ccc(-c4cnc([C@@H]5CCCN5C(=O)[C@@H](NC(=O)OC)C(C)C)[nH]4)cc3cc21"
Found: True

Lookup: Cool, now "COC(=O)N[C@H](C(=O)N1CCC[C@H]1c1ncc(-c2ccc3c(c2)Oc2ccc4cc(-c5cnc([C@@H]6CCCN6C[C@@H](NC(=O)OC)C6CCOCC6)[nH]5)ccc4c2[C@H]3C)[nH]1)C1CCOCC1"
Found: True

Lookup: Cool, now "CC[C@H]1c2ccc(-c3cnc([C@@H]4CCCN4C(=O)[C@@H](NC(=O)OC)C(C)C)[nH]3)cc2Oc2ccc3cc(-c4cnc([C@@H]5CCCN5C(=O)[C@@H](NC(=O)OC)C(C)C)[nH]4)ccc3c21"
Found: True

Lookup: Cool, now "COC(=O)N[C@H](C(=O)N1CCC[C@H]1c1ncc(-c2ccc3c(ccc4oc5ccc(-c6cnc([C@@H]7CCCN7C(=O)[C@@H](NC(=O)OC)C(C)C)[nH]6)cc5c(=O)c43)c2)[nH]1)C(C)C"
Found: False

====

Assay: Inhibition of NS5A Y93H mutant in HCV genotype 1a assessed as decrease in viral replication
// NB: equality with 3 nM counts as no; only EC50 strictly below is yes

Lookup: # TODO verify EC50 < 3 nM strictly for this compound: "COC(=O)N[C@H](C(=O)N1CCC[C@H]1c1ncc(-c2ccc3c(ccc4oc5ccc(-c6cnc([C@@H]7CCCN7C(=O)[C@@H](NC(=O)OC)C(C)C)[nH]6)cc5c(=O)c43)c2)[nH]1)C(C)C"
Found: no

Lookup: Cool, now "COC(=O)N[C@H](C(=O)N1CCC[C@H]1c1ncc(-c2ccc3c(ccc4oc5cc(-c6cnc([C@@H]7CCCN7C(=O)[C@@H](NC(=O)OC)C(C)C)[nH]6)ccc5c(=O)c43)c2)[nH]1)C(C)C"
Found: no

Lookup: Cool, now "CC[C@@H]1c2ccc(-c3cnc([C@@H]4CCCN4C(=O)[C@@H](NC(=O)OC)C(C)C)[nH]3)cc2Oc2ccc3cc(-c4cnc([C@@H]5CCCN5C(=O)[C@@H](NC(=O)OC)C(C)C)[nH]4)ccc3c21"
Found: no

Lookup: Cool, now "COC(=O)N[C@H](C(=O)N1CCC[C@H]1c1ncc(-c2ccc3c(c2)Oc2ccc4cc(-c5cnc([C@@H]6CCCN6C[C@@H](NC(=O)OC)C6CCOCC6)[nH]5)ccc4c2[C@H]3C)[nH]1)C1CCOCC1"
Found: yes

Lookup: Cool, now "CCC1(CC)c2ccc(-c3cnc([C@@H]4CCCN4C(=O)[C@@H](NC(=O)OC)C(C)C)[nH]3)cc2Oc2cc3ccc(-c4cnc([C@@H]5CCCN5C(=O)[C@@H](NC(=O)OC)C(C)C)[nH]4)cc3cc21"
Found: no

Lookup: Cool, now CCC1c2ccc(-c3cnc([C@@H]4CCCN4C(=O)[C@@H](NC(=O)OC)C(C)C)[nH]3)cc2Oc2ccc(-c3cnc([C@@H]4CCCN4C(=O)[C@@H](NC(=O)OC)C(C)C)[nH]3)cc21 (stereo partly specified)
Found: no
